system: MS2 coat protein; assay: apparent KD of MS2 coat protein; designed switch direction (-1 OFF switch, 1 ON switch): -1; higher = weaker reporter binding; conditions: Eterna round: R95; input ligand: microRNA oligo, concentration not stated
readout: apparent KD of MS2 coat protein (nM)
# value in nM; strip the unit string

Input line: What value of apparent KD of MS2 coat protein has been recorded for this entry: AAUAAGUGAGGAUAUGGAAUAAUAAAUAAAAUAAUAAAUAACCAGAAGGCACAUGAGGAUCACCCAUGUAAUAA [JMF's solution 3] (puzzle: Exclusion 4)
Output line: 23.7

Input line: Further, for GAAAAGGUAGGAUAUACGAAAAAAAAGGGUAGAAAAAAAACACAUGAGGAUCACCCAUGUAGAAGGACCAUAAG [salish99_ex2_r3_091] (puzzle: Exclusion 2) ?
Output line: 29.9

Input line: Further, for UAGGAGUCAGGAUAUGCGAGAGAUGGAAGUAAGGGAUGAGAGCAGAAGGGACAUGAGGAUCACCCAUGUAAGGA [JR_Exclu4_Sub091] (puzzle: Exclusion 4) ?
Output line: 37.2

Input line: Further, for AAGAAGAUAGGAUAUACGAGGAGAGGAGAGAAGAGGAGAGGACAUGAGGAUCACCCAUGUAGAAGGAUCAGGAA [JR_Exclu2_Sub062] (puzzle: Exclusion 2) ?
Output line: 29.6

Input line: Further, for CCGGAAAUGGAGGAUAUAGGAGUCGAUAGACACCUAGAAGGUCAGACAUGAGGAUCACCCAUGUGUCCUACCGG [Fiskers Ex 6 - 88] (puzzle: Exclusion 6) ?
Output line: 14.9

* * *

system: MS2 coat protein; assay: apparent KD of MS2 coat protein; designed switch direction (-1 OFF switch, 1 ON switch): -1; higher = weaker reporter binding; details: input ligand: FMN 200 uM
Answer each item with its documented apparent KD of MS2 coat protein.
# value in nM; strip the unit string

Input line: What value of apparent KD of MS2 coat protein has been recorded for this entry: CUGUUUUUCGCAGGAUAUGCUCCUCCAUUAUUUGCAGAAGGGCGUUAAACAUGAGGAUCACCCAUGUAUGGUAAUGACUAUUGC [JR_ExcNG1_Sub066] (Eterna round: R96, puzzle: Exclusion NG 1)
Output line: 27.4

Input line: Further, for AGCGCCAUCGUGAGAUGGCGUAUUACAUGAGGAUCACCCAUGUAGGAUAUCGAUUGCUUUGCAGUCGAGAAGGACAUGUUCUAG [JL ENG3 3.80 Mod A] (Eterna round: R96, puzzle: Exclusion NG 3) ?
Output line: 95.5

Input line: Further, for UGCUACAUGAGGAUCACCCAUGUUAUUUGGGAUUUUUUAGGACAGGAUAUGAUUGUAUUGUUUUUUCAGAAGGGUCAUUACUUU [JR_ExcNG3_Sub013] (Eterna round: R96, puzzle: Exclusion NG 3) ?
Output line: 368

* * *

test system: K4 kissing-loop RNA reporter; experiment: apparent KD of K4 kissing-loop reporter; higher = weaker reporter binding; conditions: Eterna round: R107; input ligand: FMN 200 uM;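 also: bound reporter read as fluorescence of individual clusters on recovered sequencing chips by microscopy, with normalized cluster intensities fitted with a binding model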
Answer each item with its documented apparent KD of K4 kissing-loop reporter.
# value in nM; strip the unit string

Input line: What value of apparent KD of K4 kissing-loop reporter has been recorded for this entry: UGUCAUUGGUCGGCCGCCACUCCAUAAAGAGUGAUGUUCUGAAAGACGGAUCGAAAGAUCUGUCGGAGGACCGGGACCGAUGACU [FiskerMod 3 - Jieux - Same State - Tryptophan B]
Output line: 1310

Input line: Further, for `GCCGUAGAUGGAAGGAGCGUGCCUUUCAGUUAUAGUGAUGUUAUAACCGAGGAACGGUUGGCACAGGUAGGUCGCCAUCUACGGC` ?
Output line: 178

Input line: Further, for GUACGCUCCCGAGUGAUGUUCGGUAAUCGCUAGGAUAUCGCUUUUGCGAGAAGGAGCGGAAUGAGGAAACUCGUUCUGAGUGUAC [FMN A 26] ?
Output line: 300

Input line: Further, for CAAAACGAGUGAUGUUCGGACAACAACGUUAAGGAUAUACUUCUCUGUAGAAGGUAACAGUAUUUAUAUUUCAUCAACGAAAAUG [theeternabot_exclusion_KL_FMN_A_12] ?
Output line: 213

Input line: Further, for CGGCGGAGUGAUGUUCCACCUACUGCGGAUACCAGCUUUGCCAAAGGCCCUUGGCAGCCGCACGGCUCAGUGAUGUUGGGUCGCG [Same State Theophylline A G11] ?
Output line: 225

Input line: Further, for AUUUAUUCGUACUACUAGUGAUGUUAGUAACGAGGACCGGUACGGCCGCCACUCGAUUUGGCGAUUUUGUAUUUUUUAUUCUAUA [JR_SSTryptoA_Sub011] ?
Output line: 324

Input line: Further, for AAAUAAAUCGGAGGAUAUCCUUCCCACGUCGAAGUACCGUGCUUGAUGGAGUGAUGUUCGAUCAGAGGAGAAGGCCGAUAAAUAA [Same State FMN B GF20] ?
Output line: 1040

Input line: Further, for GGCGGCCGCGCGCAAGCGCGGCCGGCCGAUACCAGCGCGACGGCGCGCCCUUGGCAGCGGCGCCGAGUGAUGUUCGGCCUGCCGU [#2 Same State - Theophylline A Attempt #15 (HarryS)] ?
Output line: 151

Input line: Further, for GGUUCUGGUUUGGAGUGAUGUUCUAAGUGGCAGGAUAUGGAGAGAUCCAGAAGGGCCGUUUGUAUCUUUUUUGUGUGGUUUUUUU [Last Minute #2] ?
Output line: 132

Input line: Further, for UACUGGGCGAGUGAUGUUUGCUCAUGUGAUACCAGUGCCAUCCAACACCCUUGGCAGCAUGCGGGCAGUGAUGUUGUCCAUGGAA [Exclusion Theophylline A GF10] ?
Output line: 629

Input line: Further, for UGUCGAGUGAUGUUCGAUGUGGUGCAUUCAGAGGAUAUAGGGUGGGCUAGAAGGCUGAAAAGUGCUUCGAGUGAUGUUCGAAGAU [Exclusion FMN A GF8] ?
Output line: 70.6

* * *

tested on: MS2 coat protein; assay: apparent KD of MS2 coat protein; designed switch direction (-1 OFF switch, 1 ON switch): -1; higher = weaker reporter binding; settings: Eterna round: R95; input ligand: microRNA oligo, concentration not stated
Answer each item with its documented apparent KD of MS2 coat protein.
# value in nM; strip the unit string

Input line: What value of apparent KD of MS2 coat protein has been recorded for this entry: AAGAGGUCAGGAUAUACGGAGAGAGGGAGUUGGUGAGGGUAACAUGAGGAUCACCCAUGUAGAAGGGACUAAGA [JR_Exclu2_Sub078] (puzzle: Exclusion 2)
Output line: 22.4

Input line: Further, for AUUGAGCUAGGAUAUACAUGAGGAUCACCCAUGUAGCAAAAUAGCUAUACAUGAUCGGGUAGAAGGAGCGCGAG [Tirivela] (puzzle: Exclusion 3) ?
Output line: 14.3

Input line: Further, for GUGUACAGAGGAUAUACUUGAAUCUAGCGAAGCUAGGUUCGACAUGAGGAUCACCCAUGUAGAAGGCUGUACAC [Dot plot directed A v2] (puzzle: Exclusion 2) ?
Output line: 12.4

Input line: Further, for GCCUCACAUGAGGAUCACCCAUGUCAGGAUAUAGGAGACGGUAGCUUUGCUGCCAUCGCUAGAAGGGACUGGCU (puzzle: Exclusion 1) ?
Output line: 65.6

Input line: Further, for AGUAACAGAGGAUAUACUGUUUUAUGUAUUUAUUAUUUUAAACAUGAGGAUCACCCAUGUAGAAGGCUGAAUGA [JMF 98] (puzzle: Exclusion 2) ?
Output line: 22.4

Input line: Further, for UUUUAACAUGAGGAUCACCCAUGUGAGGAUAUCGAAAUUUAUAUUUAUAUUAAUAAUUCGAGAAGGCACAUUUU [JMF 77] (puzzle: Exclusion 1) ?
Output line: 155

Input line: Further, for GAAGAAGAGAGAAUAGAAAACAUGAGGAUCACCCAUGUUAAGAGAUGAGGGUGUAAUAGGAUUUUUGCUCGUCUUAU (puzzle: Sensor v3, turn-off variant 1) ?
Output line: 54

Input line: Further, for CGUGACUCAGGAUAUCGAUUAUAUCACAUGAGGAUCACCCAUGUCCAGCGAAAGCUGGAGUGAGAAGGGAGUCACG [Fiskers Ex 5 - 49] (puzzle: Exclusion 5) ?
Output line: 107

Input line: Further, for GCUUGUAGAGGAUAUACAAGGGCCUUAGCGAAUAACACCGCACAUGAGGAUCACCCAUGUAGAAGGCUACCACC [Tezausesti] (puzzle: Exclusion 2) ?
Output line: 15.2

Input line: Further, for GAUCUGACAGGAUAUACAUGAGGAUCACCCAUGUGCGAGCUAGCGAAAGCUAGCUUAGGUAGAAGGGUCAGAUC [Ex3 dot plot directed v3] (puzzle: Exclusion 3) ?
Output line: 10.7

Input line: Further, for AGUAGGUCUACCUUGGUGGAUCUGCAUAAAGCAAGUGAAACAUGAGGAUCACCCAUGUCCUCAUUUGCUCGUCUUAU [JL turnoff v2 99.20] (puzzle: Sensor v3, turn-off variant 2) ?
Output line: 634

Input line: Further, for AGCAUGUAAGGAUAUGUAACGCGGCUUUCAUUCGCCGUCCCACAGAAGGUACAUGAGGAUCACCCAUGUGCUCC [Solaisorin] (puzzle: Exclusion 4) ?
Output line: 33.3

Input line: Further, for AAUAAUAAGGAGGAUAUCGUAUCGGAAACGAUACGAGAAGGCCUAACAUGAGGAUCACCCAUGUUCCUUAAUAA [Fiskers Ex 6 - 4] (puzzle: Exclusion 6) ?
Output line: 22

Input line: Further, for AUUCAGCGAGGAUAUACAGGUUCUGGGUGAGGCUCGGCGAGACAUGAGGAUCACCCAUGUAGAAGGUGCUAGCC [Rezalaes] (puzzle: Exclusion 2) ?
Output line: 277

Input line: Further, for AAUUCACAUGAGGAUCACCCAUGUCAGGAUAUGGUUUCACGUUUUUCUUUUCUUGAUUCCAGAAGGGACAGCUA (puzzle: Exclusion 1) ?
Output line: 58.6

Input line: Further, for GAUCAACAUGAGGAUCACCCAUGUGAGGAUAUGAUACUAUGUACUUCGGUACAUAGUAUCAGAAGGCAUGUGGA [Ex1-3: 76] (puzzle: Exclusion 1) ?
Output line: 162

Input line: Further, for GAAAAGGUAGGAUAUACAAAAAAAAAGGGUAGAAAAAAAACACAUGAGGAUCACCCAUGUAGAAGGACCAAAAG [salish99_ex2_r3_057] (puzzle: Exclusion 2) ?
Output line: 37

Input line: Further, for CUUUUGUGAGGAUAUCAGUAGUAAAAUAAUAAUAUUACUACUGAGAAGGCACAUGAGGAUCACCCAUGUUCCUC [Fiskers Ex 4 Super stable 44 mod 1] (puzzle: Exclusion 4) ?
Output line: 39

Input line: Further, for GGAAGAAUGAGUAGUCCUCAUUGAAGAGAACAGUAAGAAACAUGAGGAUCACCCAUGUAAGAACAAGCUUUUGCUCA [JR_Sv3TOV2_Sub002] (puzzle: Sensor v3, turn-off variant 2) ?
Output line: 699

Input line: Further, for CUAUUGGCAGGAUAUGCUUUUUUAGACAUGAGGAUCACCCAUGUGAUGAAUAUUGGGUUUGCAGAAGGGCCUGAAU [JR_E5_Sub039] (puzzle: Exclusion 5) ?
Output line: 64.2

Input line: Further, for UUGUUUGUAGUGAGGAUAUCGUUGAGGAAGAGGAUCGAGAAGGCACAUGAGGAUCACCCAUGUUAGAUGUGGUU [JR_BMOE4_Sub082] (puzzle: Brourd's mod of Exclusion 4) ?
Output line: 99.1

Input line: Further, for UAAAAUAGUGUGAGGAUAUGCUGGUCCUUGGAUCAGCAGAAGGCACAUGAGGAUCACCCAUGUAGUUAAUUAUA [Mat - Exclusion 4 - JL Mod - D24] (puzzle: Brourd's mod of Exclusion 4) ?
Output line: 36.8
